Entry source: ChEMBL document CHEMBL4680130

Target: Adenosine receptor A3 (Rattus norvegicus)
Sequence (P28647 whole entry): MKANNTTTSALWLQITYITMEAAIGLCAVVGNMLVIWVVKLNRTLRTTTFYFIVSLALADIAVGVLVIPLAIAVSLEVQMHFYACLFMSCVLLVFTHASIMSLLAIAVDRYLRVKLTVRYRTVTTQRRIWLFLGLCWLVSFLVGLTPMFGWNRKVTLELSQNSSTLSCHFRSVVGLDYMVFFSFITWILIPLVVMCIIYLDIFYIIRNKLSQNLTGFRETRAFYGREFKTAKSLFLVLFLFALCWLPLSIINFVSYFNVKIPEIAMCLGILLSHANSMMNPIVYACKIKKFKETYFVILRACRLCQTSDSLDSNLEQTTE
pKi: −log10 of the molar value.
Here, each record is paired with measured pKi data.

In the examples that follow, each entry is paired with its recorded pKi.
1) CC[C@@H]1CN2C(=O)N(C)c3nc(-c4ccccc4)[nH]c3C2=N1 = < 5.00
2) COc1ccc(C(=O)Nc2nc(-c3ccccc3)c(C(=O)c3ccc(C)cc3)s2)cc1 = < 5.00
3) Cn1c(=O)c2[nH]cnc2n(C)c1=O = < 4.00
4) COc1ccc(C(=O)Nc2nc(-c3ccccc3)c(-c3nc4ccccc4c(=O)n3-c3ccc(C)cc3)s2)cc1 = < 5.00
5) COc1ccc(C(=O)Nc2nc(-c3ccccc3)c(C(=O)c3ccccc3)s2)cc1 = < 6.00

GET /values?readout=pKi&item= `Cc1ccc(-n2c(-c3sc(NC(=O)c4ccco4)nc3-c3ccccc3)nc3ccccc3c2=O)cc1`
5.74

Please give the result for `CCCCn1c(=O)c2[nH]c(C34CC5CC(CC3C5)C4)nc2n(CCCO)c1=O` too.
5.19

Quick one: `Cc1ccc(-n2c(-c3sc(NC(=O)c4ccccc4)nc3-c3ccccc3)nc3ccccc3c2=O)cc1`
6.09
